Taken from BindingDB's records for doi:10.1021/jm9801760.

// pIC50 lookup, one value per entry
Target: Integrase (Human immunodeficiency virus 1, UniProt Q7ZJM1)
Sequence (Q7ZJM1 whole entry): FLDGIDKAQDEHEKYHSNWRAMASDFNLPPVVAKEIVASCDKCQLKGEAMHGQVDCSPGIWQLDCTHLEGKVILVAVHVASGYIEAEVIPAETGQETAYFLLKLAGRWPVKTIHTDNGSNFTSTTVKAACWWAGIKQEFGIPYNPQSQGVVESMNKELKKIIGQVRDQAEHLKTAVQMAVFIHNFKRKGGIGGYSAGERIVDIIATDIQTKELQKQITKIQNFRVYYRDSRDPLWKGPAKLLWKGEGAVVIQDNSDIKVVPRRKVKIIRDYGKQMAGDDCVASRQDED
Test: Inhibitory concentration as 50% inhibition of HIV-1 integrase enzyme at strand transfer stage of DNA integration.
pIC50: −log10 of the molar value.

These recorded examples may help you get a feel for the data.
* C=c1[nH]n(C(=O)c2ccccc2O)c(=O)c1=Cc1ccc(O)cc1 | 6.05
* C=c1[nH]n(C(=O)c2ccccc2O)c(=O)c1=Cc1ccc(O)c(OC)c1 | 6.22
* C=c1[nH]n(C(=O)c2ccc(Cl)cc2)c(=O)c1=Cc1ccc(Cl)cc1 | < 3.55
* C=c1[nH]n(C(=O)c2ccc(Cl)cc2)c(=O)c1=Cc1ccccc1O | < 3.53
* C=c1[nH]n(C(=O)c2ccc(Cl)cc2)c(=O)c1=Cc1ccc(O)cc1 | < 3.53

input: Item `C=c1[nH]n(C(=O)c2ccc(Cl)cc2)c(=O)c1=Cc1ccc(OC)c(OC)c1` : provide pIC50
output: < 3.59

input: Item `C=c1[nH]n(C(=O)c2ccc(Cl)cc2)c(=O)c1=Cc1cccc(O)c1` : provide pIC50
output: < 3.53

input: Item `C=c1[nH]n(C(=O)c2ccc(Cl)cc2)c(=O)c1=Cc1cc(OC)c(OC)c(OC)c1` : provide pIC50
output: < 3.62
